I'd be grateful if you could share measured EC50 for these entries.
- TESTED TARGET: human RORγ (Homo sapiens, UniProt P51449)
- Construct: from Ser253 to Lys518 for human RORγ; expressed in transfected cells; host or cells: CHO cells (transient co-transfection with pG5-Luc)
- Sequence (P51449 253-518): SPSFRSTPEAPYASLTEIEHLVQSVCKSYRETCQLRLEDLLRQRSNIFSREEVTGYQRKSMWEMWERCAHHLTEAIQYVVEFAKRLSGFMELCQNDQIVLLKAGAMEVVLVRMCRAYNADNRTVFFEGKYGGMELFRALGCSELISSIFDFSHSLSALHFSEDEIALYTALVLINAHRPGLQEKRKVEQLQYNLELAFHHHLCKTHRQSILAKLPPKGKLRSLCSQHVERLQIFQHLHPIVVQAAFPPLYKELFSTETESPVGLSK
- ASSAY: In-vitro reporter gene assay for inhibitory activity against RORγ transcription, Test Method A (GAL4-hRORγ LBD / pG5-Luc in CHO cells)
- Type: cell-based
- EXPERIMENTAL CONTEXT: luciferase reporter, 2 days

For CC(C)(C)CCc1ccc(C23COC(C)(C)C2=CN(c2ccc(C(=O)O)cc2)C(=O)N3)cc1Cl (single isomer, unassigned) [Example 7] , what is its reported EC50?
0.009 µM

For `CC(C)(C)CCc1ccc([C@@]23CCCCC2=CN(C24CC(C(=O)O)(C2)C4)C(=O)N3)cc1Cl` , what is its reported EC50?
0.064 µM

For CC(C)(C)CCc1ccc([C@@]23CCCCC2=CN(CCC(=O)O)C(=O)N3)cc1Cl (single isomer, unassigned) , what is its reported EC50?
0.017 µM
